Species: Cavia porcellus
test_description: Tested for effect on the production of cyclooxygenase (COX) metabolite, TXB2 of arachidonic acid in guinea pig peritoneal polymorphonuclear neutrophils at 30 uM concentration
Type: functional
property_name: Reduction (%)
Give bare numbers, in %.

- molecule: "Cc1ccc(C(=O)c2ccc(O)c(C(C)C(=O)O)c2)s1 (stereo unspecified)"
  Reduction, %: 82
- molecule: "O=C(c1ccc2c(c1)C(C(=O)Nc1ccccc1)C(=O)O2)c1cccs1 (stereo unspecified)"
  Reduction, %: 93
- molecule: "CC(C(=O)O)c1cc(C(=O)c2ccco2)ccc1O (stereo unspecified)"
  Reduction, %: 87

Take each entry in turn and give its Reduction.
1. CC1C(=O)Oc2ccc(C(=O)c3ccc(F)cc3)cc21 (stereo unspecified)
2. CCCC(C(=O)O)c1cc(C(=O)c2cccs2)ccc1O (stereo unspecified)
3. CCCCC(C(=O)O)c1cc(C(=O)c2cccs2)ccc1O (stereo unspecified)

Ans.
1. 76
2. 86
3. 64

----------
Organism: Cavia porcellus
test_description: Tested for effect on the production of Lipoxygenase (LO) metabolite, 5-HETE in guinea pig peritoneal polymorphonuclear neutrophils at 30 uM concentration
Assay type: functional
So I've got a bunch of compounds here, and I need their Reduction values.
Give the number first and the unit second.

Examples with answers:
- compound: "CCCCC1C(=O)Oc2ccc(C(=O)c3cccs3)cc21 (stereo not given)"
  Reduction: "73%"
- compound: "O=C1Cc2cc(C(=O)c3cccs3)ccc2O1"
  Reduction: "-33%"
- compound: "O=C(O)Cc1cc(C(=O)c2cccs2)ccc1O"
  Reduction: "-72%"
- compound: "CC(C(=O)O)c1cc(C(=O)c2ccccc2)ccc1O (stereo not given)"
  Reduction: "-27%"
- compound: "CCCC(C(=O)O)c1cc(C(=O)c2cccs2)ccc1O (stereo not given)"
  Reduction: "-33%"

Take each entry in turn and give its Reduction.
1. CC1(C)C(=O)Oc2ccc(C(=O)c3cccs3)cc21
2. CCCCC(C(=O)O)c1cc(C(=O)c2cccs2)ccc1O (stereo not given)
3. CC1C(=O)Oc2ccc(C(=O)c3ccc(F)cc3)cc21 (stereo not given)
4. COc1ccc(C(=O)c2ccc(O)c(C(C)C(=O)O)c2)cc1 (stereo not given)
5. CC(C(=O)O)c1cc(C(=O)c2cccs2)ccc1O (stereo not given)
6. CC1C(=O)Oc2ccc(C(=O)c3ccco3)cc21 (stereo not given)
7. O=C1Oc2ccc(C(=O)c3cccs3)cc2/C1=C/c1ccc(Cl)cc1
8. CC(C(=O)O)c1cc(C(=O)c2ccc(F)cc2)ccc1O (stereo not given)

Ans.
1. 52%
2. 60%
3. 6%
4. 5%
5. -68%
6. 20%
7. 71%
8. -1%

Take each entry in turn and give its Reduction.
1. CC(C)(C)c1cc(/C=C2\C(=O)Oc3ccc(C(=O)c4cccs4)cc32)cc(C(C)(C)C)c1O
2. CCC(CC)(C(=O)O)c1cc(C(=O)c2cccs2)ccc1O
3. O=C1Oc2ccc(C(=O)c3cccs3)cc2/C1=C/c1ccccc1

Ans.
1. -11%
2. -21%
3. -18%

Take each entry in turn and give its Reduction.
1. CCC1C(=O)Oc2ccc(C(=O)c3cccs3)cc21 (stereo not given)
2. O=C1Oc2ccc(C(=O)c3cccs3)cc2/C1=C/c1ccc(C(F)(F)F)cc1
3. CC(C)(C(=O)O)c1cc(C(=O)c2cccs2)ccc1O
4. C=CCc1cc(C(=O)c2cccs2)cc2c1OC(=O)C2C (stereo not given)

Ans.
["20%", "67%", "-20%", "14%"]
